Where do these numbers come from? They come from PubChem BioAssay AID2202554.

# Test system: S. typhimurium/E. coli reverse mutation, colony counts
# experiment: Bacterial reverse mutation test (aka Ames test) summary data;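 further: His-minus Salmonella and trp-minus E. coli WP2 uvrA pKM101 with or without liver S9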
Results filed as inconclusive are left out. Calls of active or inactive are those of the source. How the calls were made is not given here.
The categories you may choose from are active, inactive

[
  {
    "compound": "CCC(C)=O",
    "classification": "inactive"
  },
  {
    "compound": "S=C=S",
    "classification": "inactive"
  },
  {
    "compound": "CCCCOC(=O)c1ccccc1N",
    "classification": "inactive"
  },
  {
    "compound": "CNC=O",
    "classification": "inactive"
  },
  {
    "compound": "CS(C)=O",
    "classification": "inactive"
  }
]

Req: Each compound tested received a call. Report the one for "Nc1ccccc1" .
Resp: inactive

Req: Each compound tested received a call. Report the one for "CCCC[n+]1ccccc1" .
Resp: inactive
